// data source = paper PMC9352680

Listed binders paired with reported pKd
- TARGET SYSTEM: T1, PUF4 RNA-binding domain (Saccharomyces cerevisiae, UniProt P25339 537-888)
- T1 sequence: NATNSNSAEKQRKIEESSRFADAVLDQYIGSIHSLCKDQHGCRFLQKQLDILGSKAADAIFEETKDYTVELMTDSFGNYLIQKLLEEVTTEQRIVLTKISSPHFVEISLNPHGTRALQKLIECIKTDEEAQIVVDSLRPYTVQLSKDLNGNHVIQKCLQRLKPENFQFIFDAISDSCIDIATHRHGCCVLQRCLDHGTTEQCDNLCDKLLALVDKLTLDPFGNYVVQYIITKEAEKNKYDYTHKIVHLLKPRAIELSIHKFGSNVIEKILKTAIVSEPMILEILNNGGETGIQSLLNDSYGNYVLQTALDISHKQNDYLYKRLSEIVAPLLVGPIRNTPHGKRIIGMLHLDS
- MEASUREMENT PROTOCOL: Mg; RNA-MaP; 20 mM Na-HEPES pH 7.4, 30 mM KOAc, 0.75 mM MgCl2, 0.1% Tween-20, 5% glycerol, 0.1 mg/mL BSA, 2 mM DTT; 25 C; 0.0125-409.6 nM protein
- CONDITION: tags: N-His6-TEV cleaved; C-SNAP kept, Cy3B-labelled; label: tethered on chip by stalled RNA polymerase
pKd: −log10 of the molar value.

BINDER | pKd
UCUCUUUGUACACCUCUCUU (ssRNA) [Ic_S1_P3E.1_K3.1_C3.1_H3.1_A3.1_[T5C]_F3.1_[T7C]_[A8C]_T3.1] | 7.38
UCUCUUUCUUGUAUAUUACUUCUCUU (ssRNA) [Id_iii_S1_P4E.5_K4.1_C4.3_H4.1_A4.1_F4.1_T4.2_[G10C]] | 8.99
Id_ii_S4_P3E.3_K3.2_C3.2_[T-1C]_H3.2_A3.1_F3.1_T3.2_[T9A]_[A10C] (ssRNA) RNA: UUUGACAACUGAUCGUUCUUUCUCCUAUAUAUAACUUCUUUCUCGAUCAGUUGUCUUU | 6.33
Id_ii_S2_P5E.4_K5.3_C5.2_[C-2G]_H5.3_A5.1_F5.1_T5.2_[A12T] (ssRNA) RNA: UUUGAUUAAUAUGAUAUCGUUCUUUCUGUACACUUAUUAUUUUCUUUCUCGAUAUCAUAUUAAUCUUU | 8.90
Ib_S2_P4E.1_K4.1_C4.1_H4.1_[T1G]_A4.1_[T7A]_F4.1_T4.1 (ssRNA) RNA: UUUGAUUAAUAUGAUAUCGUUCUUUCUGGUAUAAUAUUCUUUCUCGAUAUCAUAUUAAUCUUU | 6.52
UCUCUUUGCCUCUAUAUUAUCUCUU (ssRNA) [Ie_S1_P4E.1_K4.1_C4.1_H4.1_[+2CCTC]_A4.1_F4.1_T4.1] | 6.00
